Biological target: alpha human thrombin (Homo sapiens)
measurement kind: Ki
Form field: result (number plus unit)

Give Ki for this entry on alpha human thrombin (Homo sapiens): N#C[C@H](CCCNC(=N)N)NC(=O)[C@@H]1CCCN1C(=O)[C@H](N)Cc1ccccc1.O=CO.O=CO [H-D-Phe-Pro-Arg-CN × 2HCOOH]
0.6 µM
